- studyTarget: Aldehyde dehydrogenase, dimeric NADP-preferring (Homo sapiens, UniProt P30838)
- procedureDetails: Inhibition of full length human ALDH3A1 expressed in Escherichia coli BL21 (DE3) using benzaldehyde as substrate preincubated for 2 mins followed by substrate addition by spectrophotometry in presence of NADP+
pIC50: −log10 of the molar value.
Rule: pIC50 under 6 gives False, otherwise True.

Incoming: Dear colleague, could you confirm whether O=C1C(=O)N(CN2CCN(Cc3ccccc3F)CC2)c2ccccc21 has pIC50 at or above 6?
Outgoing: False

Incoming: Test whether the compound Cc1cc(Br)c2c(c1)C(=O)C(=O)N2 records pIC50 of 6 or higher.
Outgoing: True

Incoming: In plain terms: is recorded pIC50 at least 6 for O=C1C(=O)N(CCCc2ccccc2)c2ccccc21 ?
Outgoing: True

Incoming: Assess whether reported pIC50 for O=C1C(=O)N(CN2CCN(CN3C(=O)C(=O)c4ccccc43)C2)c2ccccc21 sits at 6 or higher.
Outgoing: False

Incoming: Threshold query (pIC50 >= 6) on O=C1C(=O)N(CCc2ccccc2)c2ccc(Br)cc21
Outgoing: False

Incoming: Please tell me: is the compound CCCCCN1C(=O)C(=O)c2ccccc21 at or over 6 in terms of pIC50?
Outgoing: True

Incoming: Please indicate if the recorded pIC50 for O=C1C(=O)N(CN2CCN(Cc3cccc(F)c3)CC2)c2ccccc21 meets or exceeds 6.
Outgoing: False

Incoming: Hello, I need to know if O=C1C(=O)N(CN2CCN(Cc3cccc(Cl)c3)CC2)c2ccccc21 has measured pIC50 not below 6. Thanks!
Outgoing: False

Incoming: # bool: pIC50 of CN1CCN(CN2C(=O)C(=O)c3ccccc32)CC1 >= 6
Outgoing: False

Incoming: Could you please find out whether O=C1C(=O)N(CN2CCN(Cc3ccc4c(c3)OCO4)CC2)c2ccccc21 has pIC50 that meets 6 or exceeds it?
Outgoing: True

Incoming: # check: pIC50 of O=C1C(=O)N(CN2CCN(Cc3ccc4c(c3)OCO4)CC2)c2ccc(Br)cc21 is greater than or equal to 6
Outgoing: False

Incoming: Answer whether pIC50 of O=C1C(=O)N(C/C=C/c2ccccc2)c2ccccc21 is greater than or equal to 6.
Outgoing: True

====

- studyTarget: Aldehyde dehydrogenase, dimeric NADP-preferring (Homo sapiens, UniProt P30838)
- Sequence (P30838 whole entry): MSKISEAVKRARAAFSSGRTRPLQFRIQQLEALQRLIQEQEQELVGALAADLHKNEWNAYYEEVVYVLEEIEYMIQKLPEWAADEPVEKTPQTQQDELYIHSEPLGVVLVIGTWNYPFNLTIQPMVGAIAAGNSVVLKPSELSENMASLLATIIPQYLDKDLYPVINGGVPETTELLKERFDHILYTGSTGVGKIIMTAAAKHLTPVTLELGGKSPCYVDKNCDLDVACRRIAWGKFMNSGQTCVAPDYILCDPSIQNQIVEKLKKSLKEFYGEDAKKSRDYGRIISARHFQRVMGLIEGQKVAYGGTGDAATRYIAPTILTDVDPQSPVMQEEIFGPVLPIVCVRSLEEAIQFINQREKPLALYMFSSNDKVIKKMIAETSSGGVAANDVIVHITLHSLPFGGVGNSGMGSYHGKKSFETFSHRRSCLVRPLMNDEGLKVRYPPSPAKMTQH
- procedureDetails: Inhibition of human ALDH3A1 using benzaldehyde as substrate by Lineweaver-Burk plot analysis
measuredProperty: pKi
Bear in mind: pKi is minus log10 of a mol/L concentration; give just that figure.

Incoming: Record lookup: for Aldehyde dehydrogenase, dimeric NADP-preferring (Homo sapiens, UniProt P30838), what pKi belongs to Cc1cc(Br)c2c(c1)C(=O)C(=O)N2 ?
Outgoing: 6.42

====

- studyTarget: Aldehyde dehydrogenase 1A1 (Homo sapiens)
- Sequence (P00352 whole entry): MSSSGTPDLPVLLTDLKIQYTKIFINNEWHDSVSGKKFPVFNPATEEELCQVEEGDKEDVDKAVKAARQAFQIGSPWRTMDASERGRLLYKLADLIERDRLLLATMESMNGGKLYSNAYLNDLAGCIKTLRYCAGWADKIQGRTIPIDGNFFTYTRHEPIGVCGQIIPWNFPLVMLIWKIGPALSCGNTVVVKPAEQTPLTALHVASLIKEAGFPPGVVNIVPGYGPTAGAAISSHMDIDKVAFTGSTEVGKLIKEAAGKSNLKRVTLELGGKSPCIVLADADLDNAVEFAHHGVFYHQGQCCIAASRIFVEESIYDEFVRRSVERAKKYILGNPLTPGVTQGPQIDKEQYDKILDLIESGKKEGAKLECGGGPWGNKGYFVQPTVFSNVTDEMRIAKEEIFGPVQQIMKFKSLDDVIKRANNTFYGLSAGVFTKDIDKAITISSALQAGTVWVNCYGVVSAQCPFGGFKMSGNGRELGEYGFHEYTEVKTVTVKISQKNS
- procedureDetails: Inhibition of human ALDH1A1 using propionaldehyde as substrate preincubated for 2 mins followed by substrate addition by spectrophotometry in presence of NAD+
measuredProperty: log10 IC50 (log10 of the value in nM)
The figures below represent log10 of IC50, where IC50 is stated in nM.

Incoming: Entry under review: O=C1C(=O)N(C/C=C/c2ccccc2)c2ccccc21 . Reported log10 IC50?
Outgoing: 1.85

Incoming: Requested field: log10 IC50. Item: O=C1C(=O)N(CN2CCN(Cc3ccccc3)CC2)c2ccccc21
Outgoing: 4.70

Incoming: GET /values?readout=log10 IC50&item= O=C1C(=O)N(Cc2ccccc2)c2ccc(Br)cc21
Outgoing: 2.76

Incoming: Need log10 IC50, item O=C1C(=O)N(CN2CCN(Cc3ccc4c(c3)OCO4)CC2)c2ccccc21
Outgoing: 4.08

Incoming: Entry O=C1C(=O)N(Cc2ccccc2)c2ccc(Cl)cc21 : reported log10 IC50 = ?
Outgoing: 1.78

Incoming: Reported log10 IC50, compound COc1cccc(CN2CCN(CN3C(=O)C(=O)c4ccccc43)CC2)c1 : ____
Outgoing: 4.53

Incoming: Need log10 IC50, item CCCCCN1C(=O)C(=O)c2ccccc21
Outgoing: 1.60

====

- studyTarget: Aldehyde dehydrogenase, dimeric NADP-preferring (Homo sapiens)
- procedureDetails: Inhibition of full length human ALDH3A1 expressed in Escherichia coli BL21 (DE3) using benzaldehyde as substrate preincubated for 2 mins followed by substrate addition by spectrophotometry in presence of NADP+
Hi there, I'd appreciate the recorded IC50 for every entry that follows.
Provide only the numeric value, understood in µM.

Incoming: Record lookup: for Aldehyde dehydrogenase, dimeric NADP-preferring (Homo sapiens), what IC50 belongs to COc1cccc(CN2CCN(CN3C(=O)C(=O)c4ccccc43)CC2)c1 ?
Outgoing: 1.2

Incoming: Please provide the recorded IC50 for O=C1C(=O)N(CN2CCN(Cc3ccccc3)CC2)c2ccccc21 , tested on Aldehyde dehydrogenase, dimeric NADP-preferring (Homo sapiens).
Outgoing: 0.93

Incoming: Value wanted: IC50 (Aldehyde dehydrogenase, dimeric NADP-preferring (Homo sapiens)) of entry O=C1C(=O)N(CN2CCN(Cc3ccc(F)cc3)CC2)c2ccccc21
Outgoing: 1.5

Incoming: Reported IC50 for Aldehyde dehydrogenase, dimeric NADP-preferring (Homo sapiens), given O=C1C(=O)N(CN2CCOCC2)c2ccccc21 ?
Outgoing: 1.3
